Target: T1, recombinant cynomolgus ApoC3 (cynomolgus monkey, UniProt P18659 21-99, biotinylated in the captured-antigen assays (Tables 6 and 8); sites not stated)
T1 construct: No cleavage site is stated, so none is applied; also called rcyApoC3; bio-rcyApoC3
T1 sequence (P18659 21-99 limits assumed): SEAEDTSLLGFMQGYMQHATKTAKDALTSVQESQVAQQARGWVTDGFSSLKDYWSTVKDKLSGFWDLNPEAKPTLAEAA
Assay: SPR, biotinylated antigen captured on SA chip, scFv periplasmic extract injected, pH 7.4
measured_metric: koff
# answer = value followed by unit

Looking for the measured koff of 29A06 scFv (scFv, part only; not given: scFv linker, domain order, c-myc tag, V domains shown, not shown: another chain or arm of the molecule; small tags and cut ends) VH: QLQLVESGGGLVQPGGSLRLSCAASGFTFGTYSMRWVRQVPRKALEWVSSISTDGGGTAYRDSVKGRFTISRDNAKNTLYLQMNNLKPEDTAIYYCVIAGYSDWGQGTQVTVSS VL: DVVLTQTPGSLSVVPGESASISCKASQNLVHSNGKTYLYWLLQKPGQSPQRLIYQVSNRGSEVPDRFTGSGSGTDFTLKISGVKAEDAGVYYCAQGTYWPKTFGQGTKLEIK , can you help?
0.0406 s⁻¹

Would you mind telling me what koff value was observed for 29G02 scFv (scFv, part only; not given: scFv linker, domain order, c-myc tag, V domains shown, not shown: another chain or arm of the molecule; small tags and cut ends) VH: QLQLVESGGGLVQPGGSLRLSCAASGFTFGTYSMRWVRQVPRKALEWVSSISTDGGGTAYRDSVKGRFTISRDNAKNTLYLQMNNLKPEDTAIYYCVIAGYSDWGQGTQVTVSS VL: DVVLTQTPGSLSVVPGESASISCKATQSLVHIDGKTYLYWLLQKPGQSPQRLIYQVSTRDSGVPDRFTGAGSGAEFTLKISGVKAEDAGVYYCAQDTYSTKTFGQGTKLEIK ?
0.00721 s⁻¹

If you can, please state the reported koff value of 30D10 scFv (scFv, part only; not given: scFv linker, domain order, c-myc tag, V domains shown, not shown: another chain or arm of the molecule; small tags and cut ends) VH: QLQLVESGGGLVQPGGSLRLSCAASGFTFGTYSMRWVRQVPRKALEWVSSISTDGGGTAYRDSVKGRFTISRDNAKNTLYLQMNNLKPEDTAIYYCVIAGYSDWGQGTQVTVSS VL: DVVLTQTPGSLSVVPGESASISCTASQSLRHSDGRTYLYWLRQKPGQSPQRLIKRVSTRDPGVPDRFTGSGSGTDFTLKISGVRAEDAGVYYCAQGTYYPLTFGQGTKVELK .
0.0436 s⁻¹
